Ref: PubChem BioAssay (NCI)

Quick record: GI50, MCF7 breast.

{"columns": ["Molecule", "GI50"],
 "data": [
  ["O=C1Nc2ccccc2/C1=C/C(=O)c1ccc(N2CCCC2)cc1", "2050 nM"],
  ["COc1ccc([As]=[As]c2ccc(OC)c(NCS(=O)(=O)O)c2)cc1NCS(=O)(=O)O (stereo not drawn)", "1090 nM"]
]}

Switching to the query record.
## Task Report measured GI50 on MCF7 breast; entry: `O=C(O)CN(CCN(CC(=O)O)CC(=O)O)CC(=O)O`
## Result > 100000 nM

###

Recorded measurements of TGI, one per entry
Test system: MALME-3M melanoma
Test: NCI tumour cell line growth inhibition, 48 h

Worked examples, 3 compounds total:
{"columns": ["Compound", "TGI"],
 "data": [
  ["COc1cc(Nc2c(C#N)[n+]([O-])c3ccccc3[n+]2[O-])cc(OC)c1OC", "> 100 µM"],
  ["CS(=O)(=O)Nc1ccc(Nc2c3ccccc3nc3cc([N+](=O)[O-])ccc23)cc1", "4.08 µM"],
  ["O=C1N[C@H](Cc2cnc[nH]2)C(=O)N2CCC[C@@H]12", "> 100 µM"]
]}

## Task Give the value of TGI reported for the following: `NC(=Nc1ccc(S(=O)(=O)Nc2cnc3ccccc3n2)cc1)/N=C(/N)Nc1ccc(Br)cc1`
## Result > 100 µM

## Task Give the value of TGI reported for the following: `Cc1cc2c(cc1C)[n+](=O)c(C(=O)C(C)(C)C)c(C(F)(F)F)n2[O-]`
## Result 68.1 µM

## Task Give the value of TGI reported for the following: CCSC(=O)N1c2ccc(OC)cc2C=CC1C#N (stereo not given)
## Result > 1000 µM

###

Test system: NCI-H226 lung
Assay: NCI tumour cell line growth inhibition, 48 h; in the data active = GI50 below about 0.43 µM; inactive = the rest
Choose the fitting class; nothing outside Y (active), N (inactive) is accepted.

Solved entries (count: 4):
{"columns": ["Smiles String", "Label Class"],
 "data": [
  ["Nc1ncc(-c2ccc3ncnc(N4CCc5ccc(Cl)cc54)c3c2)cn1", "N"],
  ["CCO.CCO.Oc1ccc(Nc2ncns2)cc1.Oc1ccc(Nc2ncns2)cc1.[Ti]", "N"],
  ["COc1cc2c3c(n(CCCn4ccnc4)c(=O)c2cc1OC)-c1cc2c(cc1C3=O)OCO2", "Y"],
  ["O=C(c1ccccc1)c1c(C(F)(F)F)n([O-])c2ccc(F)cc2[n+]1=O", "N"]
]}

Continue with the compound presented below.
## Task Assay result, entry `O=C1c2ccccc2-c2c1c1ccc([N+](=O)[O-])cc1c(=O)n2CCCN1CCOCC1` — outcome?
## Result N

###

Recorded measurements of TGI, one per entry
System: K-562 leukemia
Assay: NCI tumour cell line growth inhibition, 48 h

{"columns": ["Molecule", "Reported Value"],
 "data": [
  ["OC1c2c(ccc3c2CCC3)CC12Cc1ccccc1C2 (centres undefined)", "54.9 µM"],
  ["CC=C(CBr)CCC(Br)C(C)(C)Cl (mixture of isomers)", "> 10 µM"],
  ["Clc1ccc(OCCSCCCCCCCCCCSCCOc2ccc(Cl)cc2)cc1", "> 100 µM"],
  ["CCOc1ccc(Nc2nc(C)c(C(=O)/C=C/c3ccc(Cl)cc3Cl)s2)cc1", "93.5 µM"],
  ["CCN(Cc1ccccc1F)c1ccc(CO)c(Cl)c1", "> 39 µM"]
]}

## Task Give the value of TGI reported for the following: `O=C1N[C@H](Cc2cnc[nH]2)C(=O)N2CCC[C@@H]12`
## Result > 100 µM

## Task Give the value of TGI reported for the following: `COc1ccc(/C=N/Nc2nc(-c3cc4oc(=O)n(C)c4cc3Cl)cs2)cc1OC`
## Result > 100 µM
